From: PubChem BioAssay

Here the recorded composite z-score is given for each entry.
Test system: Human papillomavirus type 1a protein E7 (residues 44-93)
Experiment: HPV1a E7 fragment binders on microarrays, primary screen, biochemical, small-molecule microarray, residues 44-93, 635 nm fluorescence (AID 1108);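 note: E7 fragment applied at 1 µg/mL in TBST for 1 h at 4 C; score combines spot fluorescence with its signal to noise ratio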
Condition Info: small-molecule microarray binding, fluorescence 635 nm; higher = more signal

Compound	composite z-score
COC(=O)[C@H](C)NC(=O)CCC1CC(OC(=O)NCc2ccc3c(c2)OCO3)CC2(CCCC(COC(=O)NCc3ccccc3)O2)O1 (some centres not stated)	1.25
COC(=O)CC=C[C@@H](C)[C@@H](C=NOC[C@@H](C)[C@H](OCc1ccccc1)C(C)C)NS(=O)(=O)c1ccc(C)cc1	-0.482
CC(C)=CCCC(C)=CCON=C1[C@H]2CCn3c(=O)n(-c4ccccc4)c(=O)n3[C@H]2[C@H](O)[C@@H]2O[C@H]12	1.35
COC(=O)[C@H](C)NC(=O)CCC1CC(OC(=O)NCCc2ccc(F)cc2)CC2(CCCC(COC(=O)NCCc3ccccc3OC)O2)O1 (some centres not stated)	1.35
CC(C)(C)N1C(=O)[C@H]2[C@H]3[C@H](O)[C@H](O)CC(=NOC[C@@H](O)COCc4ccco4)[C@@H]3CC[C@H]2C1=O	-0.266
O=C1[C@H]2[C@H]3[C@H](O)[C@H](O)CC(=NOC[C@@H](O)COCc4ccco4)[C@@H]3CC[C@H]2C(=O)N1C1CCCCC1	0.814
CC(CCN1CCCc2nc(C)c(C)cc21)=NO[C@H](C)c1cn([C@H](CO)Cc2ccccc2)nn1	1.01

----------
Here the recorded composite z-score is given for each entry.
System: Sonic hedgehog protein (Shh)
Experiment: small-molecule binders of Shh protein, primary screen, biochemical, small-molecule microarray, 635/667 nm fluorescence (AID 1151);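 note: Shh protein binding to compounds spotted on small-molecule microarray slides; score combines spot fluorescence intensity with signal-to-noise across triplicate slides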
Condition Info: small-molecule microarray binding, 635 nm fluorescence; higher = more signal

Mol Smiles	composite z-score
O=C1[C@H]2[C@H]3[C@H](O)[C@H](O)CC(=NOC[C@@H](O)COCc4ccco4)[C@@H]3CC[C@H]2C(=O)N1Cc1ccccc1	0.399
CCOC(=O)NN=C1C[C@@H](O)[C@@H](O)[C@@H]2[C@@H]3C(=O)N(C[C@@H]4CCCO4)C(=O)[C@@H]3CC[C@H]12	0.225
COC(=O)C1=C(C)N(Cc2ccccc2)C2=C3C(=O)OCC[C@@H]3[C@@](O)(C(=O)OC)C(=O)N2[C@@H]1c1ccccc1	0.404
CSCC[C@@H]1NC(=O)CC=C[C@@H](C)COC(=O)[C@H](C)COC1=O	2.45
CCN1C(=O)[C@H]2[C@H]3[C@H](O)[C@H](O)CC(=NOC[C@@H](O)COCc4ccco4)[C@H]3CC[C@H]2C1=O	1.97
COc1ccc(O[C@H]2C=C[C@@H](c3ccccc3)O[C@@H]2CO)cc1	0.507
CCN1C(=O)[C@H]2[C@H]3[C@H](O)[C@H](O)CC(=NO[C@@H]4O[C@H](COC(C)=O)[C@@H](OC(C)=O)[C@H](OC(C)=O)[C@H]4OC(C)=O)[C@@H]3CC[C@H]2C1=O	1.03

----------
Experiment: A549 cell viability effects, profiling panel, calcein-AM fluorescence, 48 h, basal (AID 1162); note: test concentration not given here
Condition Info: higher = more signal
Here the recorded z-score is given for each entry.

Molecule	z-score
O=C1C2=CC[C@H]3C(=O)N(C4CCCCC4)C(=O)[C@H]3[C@H]2[C@H](O)[C@@H]2O[C@H]12	-3.85
CCOC(=O)NN=C1C[C@@H](O)[C@@H](O)[C@@H]2[C@@H]3C(=O)N(c4ccc(F)cc4F)C(=O)[C@@H]3CC[C@H]12	-0.999
CCC1=NOC(CCC2CC(OC(=O)NCc3cccc4c3OCO4)CC3(CCCC(COC(=O)NCCc4ccc(Cl)cc4)O3)O2)C1 (stereo unspecified)	-0.584
CC(=O)OC[C@H]1O[C@H](CC=NOCC[C@@H]2C=C[C@H](OC(C)=O)[C@@H](COC(C)=O)O2)C=C[C@@H]1OC(C)=O	-0.542
CC(C)=NO[C@H](C)c1cn([C@@H]2COC[C@H]2O)nn1	0.874
CC(C)=CCCC(C)=CCON=C1C[C@@H](O)[C@@H](O)[C@@H]2[C@@H]3C(=O)N(Cc4ccc5c(c4)OCO5)C(=O)[C@@H]3CC[C@@H]12	-0.0221
COc1cccc([C@H](O)Cn2cc(-c3ccc(CON=C(C)C)cc3)nn2)c1	0.445
CCCNC(=O)OC[C@H]1O[C@H](CCON=C2C[C@@H](O)[C@@H](O)[C@@H]3[C@@H]4C(=O)N(CC)C(=O)[C@@H]4CC[C@@H]23)C=C[C@@H]1Oc1ccc(OC)cc1	0.778
CO[C@H]1COC(=O)CC=C[C@@H](C)COC(=O)[C@H]2CCCN2C(=O)CC=C[C@H]1C	1.22
CC(=O)OC[C@H]1O[C@H](C#CCC2CCCCC2)C=C[C@@H]1OC(C)=O	0.422
CCOC(=O)[C@H](CC(C)C)NC(=O)CCC1CC(OC(=O)NCCc2ccc(F)cc2)CC2(CCCC(COC(=O)NCc3cccc4ccccc34)O2)O1 (stereo partly specified)	-0.491
COc1ccc(OC[C@@H](CO)OC)cc1	0.677
COC(=O)[C@@H]1CC[C@H](C)[C@@H](c2ccc(Br)cc2)N1C[C@H](O)CN=[N+]=[N-]	0.128
O=C(NN=C1C[C@@H](O)[C@@H](O)[C@@H]2[C@@H]3C(=O)N(Cc4ccccc4)C(=O)[C@@H]3CC[C@H]12)OCc1ccccc1	0.614
CC(C)(C)N1C(=O)[C@H]2[C@H]3[C@H](O)[C@H](O)CC(=NNC(=O)OCc4ccccc4)[C@H]3CC[C@H]2C1=O	-1.13
CO[C@H]1COC(=O)CCC[C@H](C)[C@@H](OC)COC(=O)CC=C[C@@H]1C	0.0792

----------
Tested on: Sonic hedgehog protein (Shh)
Experiment: small-molecule binders of Shh protein, primary screen, biochemical, small-molecule microarray, 635/667 nm fluorescence (AID 1151);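 note: Shh protein binding to compounds spotted on small-molecule microarray slides; score combines spot fluorescence intensity with signal-to-noise across triplicate slides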
Condition Info: small-molecule microarray binding, 635 nm fluorescence; higher = more signal
Here the recorded composite z-score is given for each entry.
Recorded Metric: composite z-score

Compound	Experimental Result
CCN1C(C)=C(C(=O)OC)[C@@H](c2ccccc2)N2C(=O)[C@](O)(C(=O)OC)CC(C(C)=O)=C12	0.742
COc1ccc(OC[C@@H](CO)OC)cc1	0.577
CON=C(C)CCC(=O)OC[C@H]1O[C@H](C#Cc2ccccc2)C=C[C@@H]1Oc1ccc(C)cc1	0.597
CCOC(=O)[C@H](CC(C)C)NC(=O)CCC1CC(OC(=O)NCCc2ccc(F)cc2)CC2(CCCC(COC(=O)NCCCN3CCCC3=O)O2)O1 (stereo not given in full)	0.894
CCN1C(=O)[C@H]2[C@@H]3C(=CC[C@H]2C1=O)C(=O)[C@H]1O[C@H]1[C@H]3O	1.64
CO[C@H]1COC(=O)[C@H](C)COC(=O)[C@@H](OCc2ccccc2)C=C[C@@H]1C	0.307
CCOC(=O)[C@H](Cc1ccccc1)NC(=O)CCC1CC(OC(=O)NCCc2ccc(F)cc2)CC2(CCCC(COC(=O)NCCOc3ccccc3)O2)O1 (stereo not given in full)	1.23
CO[C@@H]1COC(=O)[C@H](COCc2ccccc2)NC(=O)CC=C[C@@H](C)[C@H](OC)COC(=O)[C@@H](C)NC(=O)CC=C[C@H]1C	1.92
CCOC(=O)[C@H](Cc1ccccc1)NC(=O)CCC1CC(OC(=O)NCc2ccc3c(c2)OCO3)CC2(CCCC(COC(=O)NCCc3ccc(Cl)cc3)O2)O1 (stereo not given in full)	1.11
CC(CCN1CCCc2nc(C)c(C)cc21)=NO[C@H](C)c1cn([C@@H]2COC[C@H]2O)nn1	0.979
CCN1C(=O)[C@H]2[C@H]3[C@H](O)[C@H](O)CC(=NOC[C@@H](O)[C@H]4O[C@@H]5OC(C)(C)O[C@@H]5[C@H]4O)[C@@H]3CC[C@H]2C1=O	0.374
COc1ccc(O[C@H]2C=C[C@@H](c3ccccc3)O[C@@H]2CON=C2c3cc(OC)ccc3O[C@H](c3cccc(OC)c3)[C@H]2O)cc1	0.105
CON=C(C)CCN1CCc2nc(-c3ccccc3)c(-c3ccccc3)cc2C1	0.872
C#CCCCON=C1[C@H]2CCn3c(=O)n([C@@H](CC)c4ccccc4)c(=O)n3[C@H]2[C@H](O)[C@@H]2O[C@H]12	0.441
CCOC(=O)[C@H](Cc1ccccc1)NC(=O)CCC1CC(OC(=O)NCc2cccc3ccccc23)CC2(CCCC(COC(=O)NCCOc3ccccc3)O2)O1 (stereo not given in full)	0.825
CC(=O)OC[C@H]1O[C@H](CC=NO[C@@H](C)c2cc(-c3c(C)cc(C)cc3C)no2)C=C[C@@H]1OC(C)=O	0.0602
CC(C)[C@@H](OCc1ccccc1)[C@H](C)C=NO[C@H](C)c1cn([C@@H]2COC[C@H]2O)nn1	0.371
CC[C@@H](c1ccccc1)n1c(=O)n2n(c1=O)[C@H]1[C@H](O)[C@@H]3O[C@@H]3C(=NOCc3ccccc3)[C@H]1CC2	1.05
CCOC(=O)CCN1C(=O)[C@H]2[C@H]3[C@H](O)[C@H](O)CC(=NNC(=O)OCC)[C@H]3CC[C@H]2C1=O	1.1
COC(=O)[C@H](C)NC(=O)CCC1CC(OC(=O)NCc2ccc3c(c2)OCO3)CC2(CCCC(COC(=O)NCc3ccccc3)O2)O1 (stereo not given in full)	1.38
C[C@H]1CC[C@H]2C(=O)N[C@H](Cc3ccccc3)C(=O)N2[C@@H]1c1ccccc1	0.401
O=C1C[C@@H](O)[C@@H](O)[C@@H]2[C@@H]3C(=O)N(C4CCCCC4)C(=O)[C@@H]3CC[C@@H]12	0.684
CCOC(=O)CCN1C(=O)[C@H]2[C@H]3[C@H](O)[C@H](O)CC(=NNC(=O)OCc4ccccc4)[C@H]3CC[C@H]2C1=O	0.968
COC(=O)[C@@H]1CC[C@H](C)[C@@H](c2ccc(Br)cc2)N1C[C@@H](O)CN=[N+]=[N-]	0.581
C=CC[C@@H]1C=C[C@H](ON=C2C[C@@H](O)[C@@H](O)[C@@H]3[C@@H]4C(=O)N(CC)C(=O)[C@@H]4CC[C@@H]23)[C@@H](CO)O1	0.652
O=C1CCCC=C1C(O)C1CCCCC1 (stereo not given)	0.628
CCOC(=O)CCN1C(=O)[C@H]2[C@H]3[C@H](O)[C@H](O)CC(=NOCC=C(C)CCC=C(C)C)[C@H]3CC[C@H]2C1=O	-0.423
CO[C@H]1COC(=O)[C@H](CCSC)NC(=O)CC=C[C@@H](C)[C@H](OC)COC(=O)[C@@H](OCc2ccccc2)C=C[C@@H]1C	1.9
O=C1C2=CC[C@H]3C(=O)N(C4CCCCC4)C(=O)[C@H]3[C@H]2[C@H](O)[C@@H]2O[C@H]12	-0.689
CCCNC(=O)OC[C@H]1O[C@H](CCON=C[C@@H](C)[C@H](OCc2ccccc2)C(C)C)C=C[C@@H]1Oc1ccc(OC)cc1	0.0021
